Target: PYL8 (Arabidopsis thaliana, UniProt Q9FGM1)
Construct: 6X-His; made in house; host or cells: E. coli BL21[DE3]pLysS
Sequence (Q9FGM1 whole entry): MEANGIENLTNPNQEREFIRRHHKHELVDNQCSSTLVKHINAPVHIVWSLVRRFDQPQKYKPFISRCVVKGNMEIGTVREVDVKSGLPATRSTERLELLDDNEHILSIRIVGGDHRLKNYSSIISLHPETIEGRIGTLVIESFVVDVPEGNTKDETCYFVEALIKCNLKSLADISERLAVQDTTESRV
Sequence (Q9CAJ0 23-511 partner): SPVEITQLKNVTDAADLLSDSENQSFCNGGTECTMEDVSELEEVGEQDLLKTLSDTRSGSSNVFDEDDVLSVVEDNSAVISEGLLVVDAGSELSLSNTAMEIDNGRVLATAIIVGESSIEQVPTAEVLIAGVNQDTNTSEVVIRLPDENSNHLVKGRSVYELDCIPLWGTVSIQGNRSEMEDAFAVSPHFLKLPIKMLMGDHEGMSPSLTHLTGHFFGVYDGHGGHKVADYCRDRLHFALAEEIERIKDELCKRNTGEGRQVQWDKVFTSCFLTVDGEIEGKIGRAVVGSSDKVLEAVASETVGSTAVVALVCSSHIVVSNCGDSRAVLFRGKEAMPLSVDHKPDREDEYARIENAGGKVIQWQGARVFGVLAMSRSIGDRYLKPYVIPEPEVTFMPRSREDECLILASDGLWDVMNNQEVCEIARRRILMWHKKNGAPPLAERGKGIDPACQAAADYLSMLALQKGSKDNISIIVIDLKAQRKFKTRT
Assay: receptor-mediated PP2C (HAB1) inhibition in vitro assay
Type: biochemical
Details: 50 uM of the test compound
MEASURED_QUANTITY: remaining activity at 50 µM

Consider the following illustrative entries.
{"MOLECULE": "N#Cc1ccc(CS(=O)(=O)NC(=O)C2(c3ccsc3)CCCCC2)cc1Br", "remaining activity at 50 µM": "13.6%"}
{"MOLECULE": "CC1CCC(C(=O)NS(=O)(=O)Cc2ccc(C#N)cc2)(c2ccc(F)cc2)CC1 (stereo not drawn)", "remaining activity at 50 µM": "25.8%"}

Kindly review the next molecule as well.
Return the recorded remaining activity at 50 µM value; entry: CC1(C)CCC(C(=O)NS(=O)(=O)Cc2ccc(C#N)cc2)(c2ccc(F)cc2)CC1
57.5%
